- EXPERIMENTAL SYSTEM: PEG-3 (UniProt Q6IN02)
- Sequence (Q6IN02 whole entry, looked up): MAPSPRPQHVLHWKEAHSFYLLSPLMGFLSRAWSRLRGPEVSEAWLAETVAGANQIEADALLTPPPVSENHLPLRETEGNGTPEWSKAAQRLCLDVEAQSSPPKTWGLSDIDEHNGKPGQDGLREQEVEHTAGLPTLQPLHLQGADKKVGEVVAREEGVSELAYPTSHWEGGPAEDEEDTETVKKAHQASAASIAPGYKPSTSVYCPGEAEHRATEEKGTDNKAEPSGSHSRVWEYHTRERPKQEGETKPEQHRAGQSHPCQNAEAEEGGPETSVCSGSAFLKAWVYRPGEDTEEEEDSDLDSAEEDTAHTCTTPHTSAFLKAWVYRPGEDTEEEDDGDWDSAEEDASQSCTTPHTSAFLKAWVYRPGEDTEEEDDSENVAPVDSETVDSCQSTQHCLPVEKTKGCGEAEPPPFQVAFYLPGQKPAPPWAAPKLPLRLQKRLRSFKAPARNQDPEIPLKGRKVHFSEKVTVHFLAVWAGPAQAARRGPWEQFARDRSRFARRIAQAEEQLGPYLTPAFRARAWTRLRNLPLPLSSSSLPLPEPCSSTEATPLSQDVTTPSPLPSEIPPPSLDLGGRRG
- PROTOCOL: Peg3 promoter luciferase inhibitors, potency, dose response, cell-based, HeLa, CREF/GAPDH counter-screen panel (AID 624167)
- CONDITION: HeLa PEG-Prom luciferase reporter, overnight, CREF/GAPDH counter-screens, mean of runs
Activity calls are given as the source filed them.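 The calls were made as follows: active = mean IC50 for reducing PEG3 promoter reporter signal at or below a set limit, with IC50 above the limit in both counter screens; inactive = the rest, including counter screen hits.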
Response enum: YES for active, NO for inactive

Name the outcome recorded for CN1CCN(c2ccc(NC(=O)N3CCc4ccccc43)cc2)CC1 in the assay. NO

Name the outcome recorded for C=CCn1c(C)cc(C(=O)CN2C(=O)c3ccccc3S2(=O)=O)c1C in the assay. YES

Name the outcome recorded for CCCC(=O)NC(c1ccc(Cl)cc1)c1ccc2cccnc2c1O (stereo unspecified) in the assay. YES

Name the outcome recorded for COc1cc(C(=O)/C=C/c2cccnc2)c([N+](=O)[O-])cc1OC in the assay. YES

Name the outcome recorded for O=C(Nc1ccccc1C(=O)Nc1nnc(C(F)(F)F)s1)c1ccccc1 in the assay. NO

Name the outcome recorded for c1ccc(CCNc2nc(-c3ccncc3)nc3ccccc23)cc1 in the assay. YES

###

- EXPERIMENTAL SYSTEM: PEG-3 (UniProt Q6IN02)
- PROTOCOL: Peg3 promoter luciferase inhibitors, potency, dose response, cell-based, HeLa, CREF/GAPDH counter-screen panel (AID 624167)
- CONDITION: HeLa PEG-Prom luciferase reporter, overnight, CREF/GAPDH counter-screens, mean of runs
The source made the active and inactive calls.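 The calls were made as follows: active = mean IC50 for reducing PEG3 promoter reporter signal at or below a set limit, with IC50 above the limit in both counter screens; inactive = the rest, including counter screen hits.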
READOUT KIND: IC50

Worked cases, answers included:
compound=CCCCCCCn1c(=N)n(CC(=O)c2ccco2)c2ccccc21 result=inactive
compound="CC(=O)OC1(C)CC(C)C(=O)C(C(O)CC2CC(=O)NC(=O)C2)C1 (stereo not given)" result="0.303 µM"
compound="CC(C)CC(N)c1csc(NC(=O)Nc2ccccc2C(C)C)n1 (stereo not given)" result="15.7 µM"
compound="COc1ccc(C(C(=O)NCC2CCCO2)N(Cc2cccs2)C(=O)c2snc(C(N)=O)c2N)cc1 (stereo not given)" result=inactive

Kindly consider the entry below.
// IC50 lookup, key: CCN(CC)CCOc1ccc(/C(=C(/Cl)c2ccccc2)c2ccccc2)cc1 17 µM

###

- Tested on: Rat fibroblasts (CREF)
- PROTOCOL: Peg3 promoter luciferase inhibitors, potency, dose response, cell-based, HeLa, CREF/GAPDH counter-screen panel (AID 624167)
- CONDITION: CREF/GAPDH counter-screens, mean of runs
The source made the active and inactive calls.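 How the source made its calls: active means mean IC50 for reducing PEG3 promoter reporter signal at or below a set limit, with IC50 above the limit in both counter screens; inactive means the rest, including counter screen hits.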
Response enum: active, inactive

molecule="CC1CC(C)C(=O)C(C(CC2CC(=O)NC(=O)C2)OC(=O)CC(=O)c2ccccc2)C1 (stereo unspecified)" experimental_system="Rat fibroblasts (CREF)" answer_label=inactive

Name the outcome recorded for CCOC(=O)c1c(SCCN2CCCCC2)n(-c2ccccc2)c(=S)n(-c2ccccc2)c1=O in the assay. active

###

- EXPERIMENTAL SYSTEM: PEG-3 (UniProt Q6IN02)
- PROTOCOL: Peg3 promoter luciferase inhibitors, potency, dose response, cell-based, HeLa, CREF/GAPDH counter-screen panel (AID 624167)
- CONDITION: HeLa PEG-Prom luciferase reporter, overnight, CREF/GAPDH counter-screens, mean of runs
Activity calls are given as the source filed them.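 Rule for the calls: active = mean IC50 for reducing PEG3 promoter reporter signal at or below a set limit, with IC50 above the limit in both counter screens; inactive = the rest, including counter screen hits.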
Response enum: active, inactive

Here are 8 compounds together with their reported answers.
compound=Cc1ccc(C(=O)N/C(=C\c2ccc(-c3cccc([N+](=O)[O-])c3)o2)C(=O)NCCCN(C)C)cc1 answer_label=active
compound=COc1ccc(C(=O)CN2C(=O)c3ccccc3S2(=O)=O)cc1 answer_label=active
compound=CN(C)CCNC(=O)/C(=C/c1ccc(-c2ccc(Cl)cc2)o1)NC(=O)c1ccccc1 answer_label=active
compound=CN(C)c1ccc(/C=N/NC(=O)c2nnn(-c3nonc3N)c2COc2ccc(F)cc2)cc1 answer_label=inactive
compound=Fc1ccc([C@@H]2CCNC[C@H]2COc2ccc3c(c2)OCO3)cc1 answer_label=active
compound=CC(C)CN(C(=O)COC(=O)/C=C/c1ccc(Cl)c(Cl)c1)c1c(N)n(Cc2ccccc2)c(=O)[nH]c1=O answer_label=inactive
compound=NC1=NC[C@H](Cc2ccccc2)N1CCc1cc(C(F)(F)F)cc(C(F)(F)F)c1 answer_label=inactive
compound=Cc1cc(Br)ccc1NC(=O)CNC(=O)Cn1ncc(Cl)c(Cl)c1=O answer_label=active

Name the outcome recorded for O=C(CN1CCN(Cc2ccccc2Cl)CC1)N=Nc1c(O)[nH]c2ccccc12 in the assay. inactive

Name the outcome recorded for COc1ccccc1N1CCN(C(=O)c2sc3ncnc(N4CCN(c5ccccn5)CC4)c3c2C)CC1 in the assay. inactive

Name the outcome recorded for COc1ccc(/C=C2/CCCC(CN(C)C)C2=O)cc1 (stereo not given) in the assay. active

Name the outcome recorded for CN1Cc2c(N3CCOCC3)nc3sc(C(=O)c4ccc(Br)cc4)c(N)c3c2CC1(C)C in the assay. active

Name the outcome recorded for CCOC(=O)CN(C(=O)CSc1nnc2c(n1)[nH]c1ccc(F)cc12)c1ccccc1 in the assay. inactive

Name the outcome recorded for CCN1CCN(c2ncc(C(=O)Nc3cc(Cl)ccc3OC)c3ccccc23)CC1 in the assay. inactive

Name the outcome recorded for COC(=O)Cc1[nH]n(-c2nc3ccccc3s2)c(=O)c1C(C)=Nc1ccc(C)cc1 in the assay. active

Name the outcome recorded for CC(=O)Nc1cccc(-c2ccnc3c2CC(C)(C(=O)Nc2cccc(OC(F)(F)F)c2)O3)c1 (stereo not given) in the assay. active

Name the outcome recorded for Cc1cccc2c1-c1sc(C(=O)NCCCN3CCCC(C)C3)cc1CO2 (stereo not given) in the assay. active

Name the outcome recorded for O=C(N/N=C\c1c(O)ccc2ccccc12)c1cncc(Br)c1 in the assay. active
